biological target: EBOV GP ectodomain residues 1-636 (GPec) (Zaire ebolavirus, strain  …, UniProt Q05320)
TEST READOUT: binding result

BINDER	TEST READOUT	READING
5.6.c2902 (antibody, V domains shown) VH: QVQLQESGPGLVKPSQTLSLTCTVSGASINSRDSYWSWIRQPPGKGLEWIGYIYYSGSTYSNPSLKSRVTMSVDTSKNQISLQLSSVTAADTAVYYCARVEGNEILFSLWYFDIWGRGTPVSVSS VL: QSVLTQPPSVSAAPGQKVTISCSGSSSNIGNNYVSWYQQLPGTAPKLLIYDNNKRPSGIPDRFSGSKSGTSATLGITGLQTGDEADYYCGSWDSSLSAGHWVFGGGTKLTVL	binding result	binds
5.6.c4515 (antibody, V domains shown) VH: QVQLVESGGDVVQPGRSLRLSCAASGFIFSTYGMHWVRQTPGKGLEWVAVLYYDGRNGYYADSVKGRFTISRDNSKNTLYLQMNSLRAEDTAVYYCARDGCSSTDCLLYYYAMDVWGQGTTVTVSS VL: QSALTQPPSASGSPGQSVTISCTGTSSDVGAYNYVSWYQQHPGKGPKLMIYEVNQRPSGVPGRFSGSKSGNTASLTVSGLQTEDEADYFCSSYAGSNTVVFGGGTKLTVL	binding result	binds
5.6.c3412 (antibody, V domains shown) VH: QIQLVESGGGVVQPVRSLRLTCAASGFTFSQYGMHWVRQAPGKGLEWVAVISYDGTQKYYSDSVKGRFTISRDNAKNTLSLQMNGLRAEDTAVYYCAKGFLERNFDLWSGSYSDSGWRGPYYGMDFWGQGTTVIVSS VL: QTVVTQEPSFSVSPGGTVTITCALSSGSVSASLYPSWYQQTPGQAPRTLIYSTNTRSSGVPDRFSGSILGNKAALTITGAQADDESDYYCVLFMSSGIYVFGTGTKVTVL	binding result	binds

These entries and their values trace back to paper PMC6908968.
